# Test system: NCI-H460 lung
# experimental protocol: NCI-60 one-dose screen, 48 h
# test parameters: 10 µM unless noted
Compounds without any hit were thinned out: in the full panel of roughly 83,000, 20% have a hit. Active and inactive are the calls of the source. How the source made its calls: active means growth percent below 10; inactive means the rest.
Could you please pick one outcome from this set? Yes = active, No = inactive

Short answer needed: outcome of this test for O=C1CCC(C(=O)N/N=C/c2ccc([N+](=O)[O-])cc2)N1 (stereo not given) ?
No

# fetch the recorded call for C#Cc1ccc(NC(=O)Cc2ccc(/C=C/C(=O)c3nccn3C)cc2)cc1 here
No

Lab log entry: Cc1cc2c(C(C)C)c(O)c(O)c(/C=N/O)c2c(O)c1-c1c(C)cc2c(C(C)C)c(O)c(O)c(/C=N/O)c2c1O — outcome as called in the assay?
Yes

What was the test verdict on C(CCCSC1=NCCN1)CCSC1=NCCN1 ?
No

Recorded call for C#CCOc1cccc(Nc2c(Cl)c(CCl)nc3ccc(Oc4ccccc4)cc23)c1 ?
No

For COC1CC(O)C2=C(CC3C(/C(C)=C\CC=C(C)C)CCC3(C)O2)C1=O (stereo not given) , what call appears in the results of this test?
No

Tell me the assay call for c1ccc(Cn2cc3c(c2)-c2nc(Nc4ccccc4)ncc2CC3)cc1 please.
No

Entry C=CCNc1ccc2c3c(cccc13)C(=O)N(CC=C)C2=O : call = ?
No

Please indicate how the test categorized CNC(=O)c1cc(Oc2ccc3nc(NC(=O)c4cc(C(F)(F)F)cc(C(F)(F)F)c4)sc3c2)ccn1 .
No

Hello, I am checking results. What call was entered for COc1ccc2c(c1)c(-c1nc(-c3cn(C)c4ccncc34)cs1)cn2C ?
Yes

----------
Listed here are compounds together with their documented growth.
# System: RPMI-8226 leukemia
# experimental protocol: NCI-60 one-dose screen, 48 h (100 = growth as untreated, 0 = no growth, -100 = all killed)
# test parameters: 10 µM unless noted
This is part of a sample that, as a whole, favours compounds with a hit. Of some 83,000 tested, about 20% had one in any assay.
Respond numerically; units are % and should not be typed.

The reported value for COC(=O)[C@@H](Cc1c[nH]c2ccccc12)NC(=O)[C@H](Cc1ccccc1)NCc1ccncc1 in terms of growth is 84.6

get_value(item= Cc1cc([N+](=O)[O-])ccc1NC(=O)c1ccc2c(c1)nc(-c1ccccc1)n2C1CCCCC1 , readout=growth) returns 76.2

Form: compound = O=C1c2c(c3c4cccnc4[nH]c3c3ccc4ccccc4c23)C(=O)N1O ; growth = 16

For this compound ( COc1nc2ccccc2cc1/C=[N+](\[O-])c1ccccc1 ), measured growth is 14.2

Memo: CN1CCN(Cc2ccc(NC(=O)c3cncc(C#Cc4c(N)ncc5ccccc45)c3)cc2C(F)(F)F)CC1 , reported growth: -38

----------
# System: RXF 393 renal
# experimental protocol: NCI-60 one-dose screen, 48 h
# test parameters: 10 µM unless noted
About 83,000 compounds went through this panel and 20% of them were active in at least one assay; those are over-represented in the sample as a whole. Calls of active or inactive are those of the source. How the source made its calls: active means growth percent below 10; inactive means the rest.
Returns: one label drawn from active, inactive

Tell me the recorded outcome of this test for N/C(=N\c1nc2ccccc2s1)NC(=O)Nc1ccccc1 .
inactive

Tell me the assay call for C#Cc1c(I)n(C2OC(CO[Si](C)(C)C(C)(C)C)C3OC(C)(C)OC32)c(=O)[nH]c1=O (stereo not drawn) please.
active

What is the recorded call for this compound in the test? CC(=O)O[C@H]1CC[C@@]2(C)C(=CC[C@@H]3[C@@H]2CC[C@]2(C)C(Cl)=C(c4nc5ccc(Cl)cn5c4NC(C)(C)C)C[C@@H]32)C1
inactive

So what was the verdict on CC(C)c1nc(N(C)S(C)(=O)=O)nc(-c2ccc(F)cc2)c1/C=C/C(=O)C[C@@H](O)CC(=O)O in this test?
inactive

# lookup: test call for CN1CCN(Cn2nc(-c3cc(Cl)cc(Cl)c3Cl)oc2=S)CC1
inactive

Please state the recorded outcome for this compound: O=C(c1ccccc1)[C@@H](c1ccccc1)[C@]1(O)C(=O)Nc2ccccc21
inactive

Per the records of this test, what outcome belongs to COC(=O)c1nc(-c2ccccc2)oc1S(=O)(=O)N1CCN(c2ccc(OC)cc2)CC1 ?
inactive

Check the results log: what was the call for CCOC(=O)c1c(C)c2c(n1Cc1ccccc1)CSc1cc(C#N)c(=O)[nH]c1-2 ?
inactive

Field: outcome | Entry: COC(=O)c1sc(-c2ccc(C)cc2)cc1O
inactive

Hello, I am checking results. What call was entered for N#C/C(=N\Nc1ccccc1)C(=O)Nc1cc(-c2ccccc2)nn1-c1ccccc1 ?
inactive

In this assay, the call recorded for CCN(CC)CCCNC(=O)c1c2c(n3ccccc13)C(=O)c1ncccc1C2=O was what?
active

# outcome recorded in this test, key = COc1ccc(/C=C/C(=O)c2ccc(-n3cc(CN4CCN(c5cc6c(cc5F)c(=O)c(C(=O)O)cn6C5CC5)CC4)nn3)cc2)cc1
inactive

Per the records of this test, what outcome belongs to O=C(O)c1nn(-c2ccc(Cl)cc2)nc1N1CCCC1 ?
inactive

Lab log entry: CS(=O)(=O)c1ccc(/C(=N/NC(N)=S)c2ccc(F)cc2)cc1 — outcome as called in the assay?
inactive

// param item: Nc1ncc(-c2ccc3ncnc(N4CCc5cc(F)c(Cl)cc54)c3c2)cc1C(F)(F)F ; yields the recorded call
active

----------
# Tested on: K-562 leukemia
# experimental protocol: NCI-60 one-dose screen, 48 h (100 = growth as untreated, 0 = no growth, -100 = all killed)
# test parameters: 10 µM unless noted
# Protocol: Cells are grown in 96 well plates and exposed to the test compound for 48 hours. Compounds are tested at a single concentration, which is 10^-5 M for most compounds. The reported endpoint is percent growth (GI% or GIPRCNT), where numbers from 0 - 100% represent growth inhibition, and numbers from -100% - 0 represent cell death. For example, a value of 40 represents 60% growth inhibition. A value of 0 means no net growth occurred over the course of the experiment. […]
The panel holds about 83,000 compounds, 20% with a hit somewhere; the sample as a whole holds those more often.
Each entry below lists one item and its recorded growth value.
Unit % implied. Number only.

Solved cases (4 shown):
COc1cccc(CNc2nnc(C)c(C)n2)c1O; 102
COc1ccc(-c2cc(-c3ccc(Nc4nc(Nc5ccc(Cl)cc5)nc(Nc5ccc(Cl)cc5)n4)cc3)no2)cc1; 69.9
CN(C)C(=O)OCc1ccc2c(Cl)cc(Cl)c(O)c2n1; 20
Cc1ccc(OCCOCCOCCOCCOc2ccc(C)n(O)c2=S)c(=S)n1O; 16.2

Entry C/C(=N\NC(=O)c1ccc(C(C)(C)C)cc1)c1ccc(O)cc1O ; growth = 12.9

----------
# Test system: MDA-MB-231 breast
# experimental protocol: NCI-60 one-dose screen, 48 h (100 = growth as untreated, 0 = no growth, -100 = all killed)
# test parameters: 10 µM unless noted
Compounds without any hit were thinned out: in the full panel of roughly 83,000, 20% have a hit.
quantity measured: growth (%)
Express your answer in %, writing the number without its unit.

C#Cc1cccc(Nc2ncnc3ccc(-c4cnc(Cl)c(NS(C)(=O)=O)c4)cc23)c1; -6.68
COc1ccc(Cn2cc3c(c2)-c2oncc2CC3)cc1; 70.5
Cc1cc2nc(C(Cl)Cl)nc(-c3ccccc3)n2n1; 62.7
Cc1cc2c(C(C)C)c(O)c(O)c(/C=N/O)c2c(O)c1-c1c(C)cc2c(C(C)C)c(O)c(O)c(/C=N/O)c2c1O; 25.5

Entry COc1ccc(-c2cc(-c3ccc(Cl)cc3)c(C#N)c(=O)n2CCCCC(=O)NO)cc1 ; growth = 52.1

In plain terms, CN1C(=O)N(C)C2C1NN=c1s/c(=C\c3ccccc3F)c(=O)n12 (centres undefined) has a documented growth of 13.2

compound CN(C)C(=O)OCc1ccc2c(Cl)cc(Cl)c(O)c2n1 , growth observed: 54.6

Field growth (entry CCN1CCN(c2cc(C(=O)Nc3cccc(Nc4ccc5c(OC)cccc5n4)c3)cc(C(F)(F)F)c2)CC1 ) reads 9.58

What the record says about COc1ccc(/C=C/C(=O)c2ccc(-n3cc(CN4CCN(c5cc6c(cc5F)c(=O)c(C(=O)O)cn6C5CC5)CC4)nn3)cc2)cc1 : growth is 67.2

----------
# Tested on: SK-MEL-5 melanoma
# experimental protocol: NCI-60 one-dose screen, 48 h (100 = growth as untreated, 0 = no growth, -100 = all killed)
# test parameters: 10 µM unless noted
# Procedure: Growth inhibition of the SK-MEL-5 human tumor cell line is measured as a screen for anti-cancer activity. Cells are grown in 96 well plates and exposed to the test compound for 48 hours. Compounds are tested at a single concentration, which is 10^-5 M for most compounds. The reported endpoint is percent growth (GI% or GIPRCNT), where numbers from 0 - 100% represent growth inhibition, and numbers from -100% - 0 represent cell death. For example, a value of 40 represents 60% growth inhibition. […]
About 83,000 compounds went through this panel and 20% of them were active in at least one assay; those are over-represented in the sample as a whole.
Decision: growth beneath 80% gives Met; growth meeting or exceeding 80% gives Not met.

CCOC(=O)c1cnc2sc(-c3ccc(OC)cc3)nc2c1Cl; Not met
COC(=O)c1c(C)nc(C)c2c1C(=O)C(Br)=C(NCCCCO)C2=O; Met
O=C(NCCN1CCOCC1)c1cncnc1Nc1ccc2c(ccn2Cc2ccccn2)c1; Not met

Hello, is growth of the following compound strictly smaller than 80%? O=C(/C=C/c1ccco1)Nc1ncc(Cc2ccc(F)cc2)s1
Met

Consider O=C1NC(=O)C(=Cc2cc(-c3ccc(Cl)cc3)n(-c3ccccc3)n2)C(=O)N1 . Does its growth lie strictly below 80%?
Not met

Please determine if Cc1nc2sc(C(=O)Nc3ccccc3)c(N)c2cc1C(O)c1ccccc1 (stereo unspecified) is below 80% in terms of growth.
Met

# check: growth < 80% for COC(=O)[C@H](C)NC(=O)[C@@H]1CCCN1C(=O)CNC(=O)[C@H](C)N
Not met

Is the reported growth for Cc1cc(C)n(C(=O)CSc2nc3sc4c(c3c(=O)n2-c2ccccc2)CCCCC4)n1 strictly below 80%?
Not met

A record lists CN(C)CCCN(CCC1CCCCC1)CCC1CCCCC1 . Is its growth below 80%?
Met

Sourced from PubChem BioAssay (NCI)
